system: MOLT-3; assay: Cytotoxicity against human MOLT3 cells after 20 hrs by MTS assay; assay type: functional, cell-based; settings: MOLT-3, 20 h
Below, each entry is listed with its recorded pIC50.
Here pIC50 is given on a logarithmic scale as minus log10 of the concentration in mol/L.

Compound	Reported property	Assay value
NC[C@H]1C[C@H](c2cc3ccccc3c3ccccc23)N(Cc2ccccc2)O1 (racemic)	pIC50	4.30
NC[C@@H]1C[C@H](c2cc3ccccc3c3ccccc23)N(Cc2ccccc2)O1 (racemic)	pIC50	4.37
CN1O[C@H](CN)C[C@@H]1c1ccc2ccc3cccc4ccc1c2c34 (racemic)	pIC50	4.92
CN1O[C@@H]2C(=O)NC(=O)[C@@H]2[C@@H]1c1ccc2ccc3cccc4ccc1c2c34 (racemic)	pIC50	3.38
CN1O[C@@H](CN)C[C@@H]1c1ccc2ccc3cccc4ccc1c2c34 (racemic)	pIC50	4.77

Shifting focus to the compound that follows.
Exam item: Look up pIC50 for this compound: CN1O[C@H]2C(=O)NC(=O)[C@H]2[C@@H]1c1ccc2ccc3cccc4ccc1c2c34 (racemic)
Marked response: 4.02
